# MEASUREMENT NOTES: AUC (0 to 24 hrs) in cynomolgus monkey at 3 mg/kg, […]
# Format: ADME, organism-based, Macaca fascicularis
# Set-up: dose 3 mg/kg, time < 24 hr
# MEASUREMENT PARAMETERS: in vivo
OBSERVATION TYPE: AUC(0-t) at 24 h (µM·h)
The answer is to be given in µM·h; state only the numeric part.

Q: Can you look up the measured AUC(0-t) at 24 h of `CN1CC2CCC(C1)N2C(=O)[C@]12C[C@H]1c1cc(F)ccc1-c1c(C3CCCCC3)c3ccc(C(=O)NS(=O)(=O)C4(C)CC4)cc3n1C2` for me?
Result: 3.1
